- MEASURED TARGET: Atrial natriuretic peptide receptor 1 (Homo sapiens)
- ASSAY NAME: GC-A stimulated cGMP production enhancers – HEK293 GC-A cells, cGMP TR-FRET, EC30 ANP, primary screen (AID 1671463)
- CONDITIONS: at 10 µM, 0% at EC30 ANP, 100% saturating ANP
Among all 370,000 compounds or so, about 520 (0.14%) were called active. Cut-off read from the data, not from the text of the source: active = activation above about 40%; inactive = the rest. Shown is part of a subset that was picked to be rich in actives.
API: response.call in active, inactive

// outcome(item) with item = O=C(NCc1ccccc1)C(c1cccnc1)N(C(=O)c1csnn1)c1ccc(F)cc1 (configuration not stated)
inactive

Also `CC(=O)c1c(C)[nH]c(=S)c(C#N)c1-c1ccc(F)cc1` ?
inactive

Then O=C(O)C1CCCN1S(=O)(=O)c1ccc(Br)cc1 (configuration not stated) ?
inactive

Further, for `CCC(=O)Nc1ccc(-c2ccc(N3CCCCC3)nn2)cc1` ?
inactive

Repeat for the following compound: `CCC(=O)Nc1ccc(Nc2nc(Cl)nc(Nc3ccc(NC(=O)CC)cc3)n2)cc1`
active

Next compound up: COc1ccc(N(CC(=O)NCC2CCCO2)C(=O)CCC(=O)Nc2nccs2)c(OC)c1 (configuration not stated)
inactive

Try `NC(=O)C1=C[C@H](c2csc3ccccc23)C[C@H](OCc2ccc(CO)cc2)O1` next.
inactive

Try this compound too: `COC(=O)Cc1ccc(OC(=O)C2CCN(S(=O)(=O)c3ccc(OC)c(OC)c3)CC2)cc1`
inactive

Proceed to `COc1ccc(NC(=O)CN(C)C(=O)Cc2coc3cc(C)c(C)cc23)cc1`
inactive

Please answer likewise for `COc1cc(/C=C2/C(=O)ON=C2C)ccc1OCc1cccc(F)c1`
active

Ok, now `CC[C@H](C)[C@@H](C(=O)N1CCNCC1)n1cc([C@@H](N)Cc2ccc(O)cc2)nn1`
inactive

Can you check CC(=O)c1ccc(S(=O)(=O)NC2CC(=O)N(c3ccc4c(c3)OCCO4)C2)cc1 (configuration not stated) next?
inactive

# iterate: `O=S(=O)(c1ccc(-c2ccccc2)cc1)N1CCCC1`
inactive

And for `COc1cc(CNc2ncn[nH]2)ccc1OCc1ccccc1C` ?
inactive

What do you have for CC1CN/C(=C\C(=O)c2ccc(Br)cc2)C(=O)N1 (configuration not stated) ?
active

Similarly, COc1ccc(CCNC(=O)c2ccc(NC(=O)CC3SC(N4CCCCC4)=NC3=O)cc2)cc1OC (configuration not stated) ?
inactive

// query: `COc1ccnc2c1c(=O)n(Cc1cccc(F)c1)c(=O)n2C`
inactive

What about `COc1ccc(CCNC(=O)CSc2nc3c([nH]2)c(=O)n(C)c(=O)n3C)cc1` ?
inactive

Subsequent entry: `O=C1CCC(=O)N1CCOP1(=O)COc2ccccc2OC1`
inactive

Moving on to the next compound: `Nc1ccc(N=Nc2ccccc2Cl)c(N)n1`
inactive

Next compound up: `CCc1c(C)[nH]c(=S)c(C#N)c1C`
inactive

Try this compound next: `CCOc1cc(/C=N/O)ccc1OCc1ccccc1F`
inactive
